# TARGET: Biotinylated CD33 protein (UniProt P20138)
# Sequence (P20138 18-259 limits assumed): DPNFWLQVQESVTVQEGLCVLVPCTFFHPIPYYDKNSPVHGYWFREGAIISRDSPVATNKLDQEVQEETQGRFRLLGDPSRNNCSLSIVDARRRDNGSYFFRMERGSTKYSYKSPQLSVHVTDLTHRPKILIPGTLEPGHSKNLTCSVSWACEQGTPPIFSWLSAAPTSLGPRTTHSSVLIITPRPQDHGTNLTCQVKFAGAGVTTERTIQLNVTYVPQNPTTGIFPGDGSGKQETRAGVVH
# ASSAY: Octet competition on biotinylated CD33; competitor 420
MEASURED ENDPOINT: Octet signal

[
  {
    "BINDER": "sdCD33_11 (VHH, sdAb from a naive llama phage library; also called 430; sdAb430) VHH: AVQLVESGGGLVQAGGSLRLSCAASGDTFANYAMGWFRQAPGKEREFVAAISWSDSSTHYADSVKGRFTIPRDNAKNAVYLQMDQLKPEDMAVYYCYAYIRGVGEVRYVDYWGQGTQVTVSS",
    "MEASURED ENDPOINT": "Octet signal",
    "MEAS VALUE": -0.169
  },
  {
    "BINDER": "sdCD33_3 (VHH) VHH: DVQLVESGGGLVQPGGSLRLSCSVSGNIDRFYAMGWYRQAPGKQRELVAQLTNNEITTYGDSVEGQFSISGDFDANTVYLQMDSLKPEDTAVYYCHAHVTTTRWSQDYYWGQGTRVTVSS",
    "MEASURED ENDPOINT": "Octet signal",
    "MEAS VALUE": -0.0387
  },
  {
    "BINDER": "sdCD33_2 (VHH) VHH: QVQLVQPGGSLRLFCVASEEFFSIYAMGWYRQAPGKQHEMVARFTRDGKITYADSAKGRFTITRDAKNTLNLQMNGLIPEDTAVYYCNINHYWGQGTQVTVSS",
    "MEASURED ENDPOINT": "Octet signal",
    "MEAS VALUE": 0.381
  }
]
